// provenance: the Human Domainome abundance scans (Beltran et al. 2025)

B1: Far upstream element-binding protein 2, residues 142 to 214; numbered along this chain, Q92945 (parent)
chain: RTSMTEEYRVPDGMVGLIIGRGGEQINKIQQDSGCKVQISPDSGGLPERSVSLTGAPESVQKAKMMLDDIVSR

- Variants of: B1
- test summary: abundance fitness (aPCA) (normalised: wild type 0, dead -1); higher = more abundant; growth selection in yeast, the domain comes from the species named
- assay context: Homo sapiens
Hi there, I'd appreciate the recorded abundance fitness for every entry that follows.

Below, 6 variants whose answers are already recorded.
M66F ... -0.383
G45A ... -0.211
R73E ... -0.013
S43E ... -0.082
R49H ... 0.025
P41S ... -0.017

Hi there! I need abundance fitness for each item below, if you can.
1. Q25C
2. G34R

-0.099
-0.307

Quick request: abundance fitness for each listed item, please.
1. S72K
2. K64Q
3. M65K
4. L67K
5. S40W
6. N27S

1. -0.048
2. -0.422
3. 0.067
4. -0.582
5. -0.207
6. -0.054

Quick batch: abundance fitness for everything below.
1. T54H
2. T54C
3. D68I
4. R21P
5. S50L

1: -0.076; 2: -0.2; 3: -0.494; 4: 0.008; 5: -0.067

Dear colleague, could you send me abundance fitness for each of the items below? Thanks.
1. A56L
2. D69V
3. M66P
4. S33A
5. E24D

1. -0.1
2. -0.181
3. -0.532
4. -0.138
5. -0.104

Please give abundance fitness, item by item, for the list that follows.
1. S50E
2. D42M

1. -0.193
2. -0.15

For every record below, what is its abundance fitness?
1. E48H
2. V51G
3. R73H
4. E24M
5. V60H
6. S72E
7. V60N

-0.007
-0.832
-0.099
-0.059
-0.727
0.007
-0.636

Could you tell me abundance fitness for each of these variants? They are listed below.
1. I26Q
2. S50R
3. D69C
4. V37F

1: -0.35; 2: 0.018; 3: -0.133; 4: -0.677

Consider the following items and state reported abundance fitness for each.
1. I70D
2. A63M
3. G22S
4. G34I

-0.574
-1.24
-0.148
-0.877
